# recordedConditions: compound at 1 uM, average of normalized cell number, n=3, relative to DMSO
measuredProperty: Average Cell Number (1 uM)

INSERT INTO measurements (compound, measuredresult) VALUES
  ('CC(C)OC(=O)[C@H](C)N[P@](=O)(OC[C@H]1O[C@@H](n2ccc(=O)[nH]c2=O)[C@](C)(F)[C@@H]1O)Oc1ccccc1', 1.039),
  ('CC(C(=O)O)c1ccc(C(=O)c2ccccc2)s1 (stereo not drawn)', 0.8638),
  ('CCCCC[C@H](O)/C=C/[C@@H]1[C@@H](C/C=C\CCCC(=O)O)[C@@H](O)C[C@H]1O', 0.8973),
  ('Cc1cncc(CN2CCC(=C3c4ccc(Cl)cc4CCc4cccnc43)CC2)c1', 0.795),
  ('C#C[C@]1(O)CC[C@H]2[C@@H]3CCC4=CC(=O)CC[C@@H]4[C@H]3C(=C)C[C@@]21CC', 0.734),
  ('O=C(O)CNC(=O)C1C(=O)N(C2CCCCC2)C(=O)N(C2CCCCC2)C1=O', 0.7431),
  ('C[C@@H]1CN(Cc2ccc(F)cc2)[C@@H](C)CN1C(=O)c1cc2c(C(=O)C(=O)N(C)C)cn(C)c2cc1Cl', 0.7439),
  ('CCC[C@H](N[C@@H](C)C(=O)N1[C@H](C(=O)O)C[C@@H]2CCCC[C@@H]21)C(=O)OCC', 0.7365),
  ('C[N+]12CCC(CC1)C(OC(=O)C(O)(c1ccccc1)c1ccccc1)C2 (stereo not drawn)', 0.6841),
  ('Cc1ccccc1-n1c(Cn2nc(-c3cccc(O)c3)c3c(N)ncnc32)nc2cccc(C)c2c1=O', 0.7115),
  ('O=C(O)Cn1nnc(-c2cc(N3CCC(Oc4cc(F)ccc4Br)CC3)no2)n1', 0.7263),
  ('FC(F)(F)c1cccc(C2=CCN(CCc3ccc4ccccc4c3)CC2)c1', 0.7188),
  ('N=C(N)c1ccc2nc(-c3cc(CC(=O)N[C@@H](CC(=O)O)C(=O)O)cc(-c4cc(S(N)(=O)=O)ccc4O)c3O)[nH]c2c1', 0.775),
  ('CS(=O)(=O)N1CCc2c(-c3cnc(N)nc3)nc(N3CCOCC3)nc21', 0.6597),
  ('CS(=O)(=O)N1CCN(Cc2cc3nc(-c4cccc5[nH]ncc45)nc(N4CCOCC4)c3s2)CC1', 0.7899),
  ('CCCCN(CCCC)CCC(O)c1cc2c(Cl)cc(Cl)cc2c2cc(C(F)(F)F)ccc12 (stereo not drawn) [Halofantrine lot −5, halofantrine]', 0.6582),
  ('CC1(C)S[C@@H]2[C@H](/N=C/N3CCCCCC3)C(=O)N2[C@H]1C(=O)O', 1.097),
  ('CC1(N)CCN(c2cccnc2NC(=O)c2nc(-c3ncccc3C(F)(F)F)cnc2N)CC1', 0.9125);

----------
# System: SARS-CoV-2
# experimentNotes: microbe, parasite or virus in culture
# Format: cell-based
Listed compounds paired with reported Average Infection (1 uM)
measuredProperty: Average Infection (1 uM)

INSERT INTO measurements (compound, systemname, measuredproperty, measuredresult) VALUES
  ('CC(C)OC(=O)[C@H](C)N[P@](=O)(OC[C@H]1O[C@@H](n2ccc(=O)[nH]c2=O)[C@](C)(F)[C@@H]1O)Oc1ccccc1', 'SARS-CoV-2', 'Average Infection (1 uM)', '−0.27'),
  ('C[N+]12CCC(CC1)C(OC(=O)C(O)(c1ccccc1)c1ccccc1)C2 (centres unmarked)', 'SARS-CoV-2', 'Average Infection (1 uM)', '−0.7651'),
  ('Cc1cncc(CN2CCC(=C3c4ccc(Cl)cc4CCc4cccnc43)CC2)c1', 'SARS-CoV-2', 'Average Infection (1 uM)', '−0.7916'),
  ('CC(C)(C)c1cc(C(C)(C)C)c(NC(=O)c2c[nH]c3ccccc3c2=O)cc1O', 'SARS-CoV-2', 'Average Infection (1 uM)', '−0.9235'),
  ('O=C(O)CNC(=O)C1C(=O)N(C2CCCCC2)C(=O)N(C2CCCCC2)C1=O', 'SARS-CoV-2', 'Average Infection (1 uM)', '−0.8526'),
  ('CC(C)N1CCN(Cc2cnc(-c3cc(-c4cccc5[nH]ccc45)cc4[nH]ncc34)o2)CC1', 'SARS-CoV-2', 'Average Infection (1 uM)', '−0.7144'),
  ('CC(C)C[C@@H](NC(=O)[C@H](Cc1ccccc1)NC(=O)CNC(=O)[C@@H](C)NC(=O)[C@@H](N)Cc1ccc(O)cc1)C(=O)O', 'SARS-CoV-2', 'Average Infection (1 uM)', '−0.6223'),
  ('O=C(c1ccc(F)cc1)N1CCC[C@H](c2nc(-c3ccc(F)cc3)no2)C1', 'SARS-CoV-2', 'Average Infection (1 uM)', '−0.4315');

----------
# recordedConditions: compound at 5 uM, average of normalized cell number, n=3, relative to DMSO
measuredProperty: Average Cell Number (5 uM)

INSERT INTO results (compound, measuredproperty, measuredresult) VALUES
  ('CS(=O)(=O)N1CCN(Cc2cc3nc(-c4cccc5[nH]ncc45)nc(N4CCOCC4)c3s2)CC1', 'Average Cell Number (5 uM)', 0.8826),
  ('Cc1ccccc1-n1c(Cn2nc(-c3cccc(O)c3)c3c(N)ncnc32)nc2cccc(C)c2c1=O', 'Average Cell Number (5 uM)', 0.9038),
  ('O=C(O)Cn1nnc(-c2cc(N3CCC(Oc4cc(F)ccc4Br)CC3)no2)n1', 'Average Cell Number (5 uM)', 0.9401),
  ('COc1nc2ccc(Br)cc2cc1[C@@H](c1ccccc1)[C@@](O)(CCN(C)C)c1cccc2ccccc12', 'Average Cell Number (5 uM)', 0.8191),
  ('c1cc(OCCN2CCCCC2)cc(-c2n[nH]c3ccc(-c4nc[nH]n4)cc23)c1', 'Average Cell Number (5 uM)', 0.8935),
  ('CN(C)[C@@H]1C(O)=C(C(N)=O)C(=O)[C@@]2(O)C(O)=C3C(=O)c4c(O)cccc4[C@@](C)(O)[C@H]3[C@H](O)[C@@H]12', 'Average Cell Number (5 uM)', 0.976),
  ('C[N+]12CCC(CC1)C(OC(=O)C(O)(c1ccccc1)c1ccccc1)C2 (stereo not drawn)', 'Average Cell Number (5 uM)', 0.9985),
  ('CC(C)C[C@@H](NC(=O)[C@H](Cc1ccccc1)NC(=O)CNC(=O)[C@@H](C)NC(=O)[C@@H](N)Cc1ccc(O)cc1)C(=O)O', 'Average Cell Number (5 uM)', 0.9869),
  ('CCCCN(CCCC)CCC(O)c1cc2c(Cl)cc(Cl)cc2c2cc(C(F)(F)F)ccc12 (stereo not drawn) [Halofantrine lot −5, halofantrine]', 'Average Cell Number (5 uM)', 0.8653),
  ('O=C(O)CNC(=O)C1C(=O)N(C2CCCCC2)C(=O)N(C2CCCCC2)C1=O', 'Average Cell Number (5 uM)', 0.9695),
  ('CC(C)OC(=O)[C@H](C)N[P@](=O)(OC[C@H]1O[C@@H](n2ccc(=O)[nH]c2=O)[C@](C)(F)[C@@H]1O)Oc1ccccc1', 'Average Cell Number (5 uM)', 0.991),
  ('CC1(C)S[C@@H]2[C@H](NC(=O)[C@H](N)c3ccccc3)C(=O)N2[C@H]1C(=O)O', 'Average Cell Number (5 uM)', 0.9658),
  ('CC(C(=O)O)c1ccc(C(=O)c2ccccc2)s1 (stereo not drawn)', 'Average Cell Number (5 uM)', 0.9679),
  ('CC1(C)S[C@@H]2[C@H](/N=C/N3CCCCCC3)C(=O)N2[C@H]1C(=O)O', 'Average Cell Number (5 uM)', 0.9928),
  ('CCC[C@H](N[C@@H](C)C(=O)N1[C@H](C(=O)O)C[C@@H]2CCCC[C@@H]21)C(=O)OCC', 'Average Cell Number (5 uM)', 0.9903),
  ('CC(C)(C)c1cc(C(C)(C)C)c(NC(=O)c2c[nH]c3ccccc3c2=O)cc1O', 'Average Cell Number (5 uM)', 0.735),
  ('C#C[C@]1(O)CC[C@H]2[C@@H]3CCC4=CCCC[C@@H]4[C@H]3C(=C)C[C@@]21CC', 'Average Cell Number (5 uM)', 0.9255),
  ('C#C[C@]1(O)CC[C@H]2[C@@H]3CCC4=CC(=O)CC[C@@H]4[C@H]3C(=C)C[C@@]21CC', 'Average Cell Number (5 uM)', 0.5829),
  ('CCCCC[C@H](O)/C=C/[C@@H]1[C@@H](C/C=C\CCCC(=O)O)[C@@H](O)C[C@H]1O', 'Average Cell Number (5 uM)', 0.9858),
  ('CC(C)(C[C@H]1CN(S(=O)(=O)c2cccc(C(F)(F)F)c2)c2cc(-c3cc(F)cc(OC(F)F)c3)ccc2O1)C(=O)O', 'Average Cell Number (5 uM)', 0.9874),
  ('O=C(O)CC[C@H]1CC[C@@](c2cc(F)ccc2F)(S(=O)(=O)c2ccc(Cl)cc2)CC1', 'Average Cell Number (5 uM)', 0.8746),
  ('CC(C)N1CCN(Cc2cnc(-c3cc(-c4cccc5[nH]ccc45)cc4[nH]ncc34)o2)CC1', 'Average Cell Number (5 uM)', 0.7914),
  ('Cc1cncc(CN2CCC(=C3c4ccc(Cl)cc4CCc4cccnc43)CC2)c1', 'Average Cell Number (5 uM)', 0.9184),
  ('N=C(N)c1ccc2nc(-c3cc(CC(=O)N[C@@H](CC(=O)O)C(=O)O)cc(-c4cc(S(N)(=O)=O)ccc4O)c3O)[nH]c2c1', 'Average Cell Number (5 uM)', 0.9439);
